Kindly state IC50 for each of the entries shown.
Biological target: Calpain-2 catalytic subunit (Sus scrofa, UniProt P43367)
Sequence (P43367 whole entry): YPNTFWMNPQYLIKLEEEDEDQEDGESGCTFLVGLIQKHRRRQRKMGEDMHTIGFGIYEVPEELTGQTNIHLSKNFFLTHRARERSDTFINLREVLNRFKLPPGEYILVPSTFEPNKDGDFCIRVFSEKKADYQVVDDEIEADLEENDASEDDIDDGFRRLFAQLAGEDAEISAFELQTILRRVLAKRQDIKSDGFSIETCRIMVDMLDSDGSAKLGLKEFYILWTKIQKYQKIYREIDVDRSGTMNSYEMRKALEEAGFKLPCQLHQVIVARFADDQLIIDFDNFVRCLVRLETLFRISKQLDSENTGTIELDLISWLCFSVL
Test: m-calpain protease blockers, concentration series – biochemical, fluorogenic peptide substrate, dose response (AID 1420)
Assay type: functional
Active and inactive are the calls of the source. The rule behind the calls is not given here.

Recorded IC50, per entry:
[
  {
    "compound": "O=C(CCCN1C(=O)c2ccccc2C1=O)C1=C(NCCO)CC(c2ccccc2)CC1=O (configuration not stated)",
    "result": "30.4 µM (not active)"
  },
  {
    "compound": "C=CCN(CC=C)Cc1nc(N)nc(Nc2ccccc2C)n1",
    "result": "< 0.4 µM (not active)"
  },
  {
    "compound": "CCN(CC(O)Cn1c2ccccc2c2ccccc21)S(=O)(=O)c1ccc(C)cc1 (configuration not stated)",
    "result": "2.61 µM (not active)"
  },
  {
    "compound": "CCc1nnc(NS(=O)(=O)c2ccc(NC(=S)NC(=O)c3ccc(Br)cc3)cc2)s1",
    "result": "6.7 µM (active)"
  },
  {
    "compound": "Cc1cc(NC(=S)N(Cc2ccc(Br)cc2)Cc2ccc(C(=O)O)cc2)ccc1Cl",
    "result": "4.69 µM (not active)"
  },
  {
    "compound": "COc1ccc(/C=N/OCC(=O)Nc2ccc3c(c2)OCO3)c(OC)c1",
    "result": "> 50 µM (not active)"
  }
]

Ask: For the compound shown here, "Fc1ccccc1COc1ccc(Br)cc1CNCc1ccncc1" , give the reported IC50.
Result: > 50 µM (not active)

Values were extracted from ChEMBL document CHEMBL1201862.
